Would you mind telling me the reported (IC50 CDK12 high ATP) to (Degradation DC50 CDK12) ratio of each entry?
target.system: CDK12 (nuclear staining in CAL-120 cells) (Homo sapiens, UniProt Q9NYV4)
Construct: endogenous in cells; host or cells: CAL-120 human breast cancer cells (DSMZ ACC 459)
Sequence (Q9NYV4 whole entry): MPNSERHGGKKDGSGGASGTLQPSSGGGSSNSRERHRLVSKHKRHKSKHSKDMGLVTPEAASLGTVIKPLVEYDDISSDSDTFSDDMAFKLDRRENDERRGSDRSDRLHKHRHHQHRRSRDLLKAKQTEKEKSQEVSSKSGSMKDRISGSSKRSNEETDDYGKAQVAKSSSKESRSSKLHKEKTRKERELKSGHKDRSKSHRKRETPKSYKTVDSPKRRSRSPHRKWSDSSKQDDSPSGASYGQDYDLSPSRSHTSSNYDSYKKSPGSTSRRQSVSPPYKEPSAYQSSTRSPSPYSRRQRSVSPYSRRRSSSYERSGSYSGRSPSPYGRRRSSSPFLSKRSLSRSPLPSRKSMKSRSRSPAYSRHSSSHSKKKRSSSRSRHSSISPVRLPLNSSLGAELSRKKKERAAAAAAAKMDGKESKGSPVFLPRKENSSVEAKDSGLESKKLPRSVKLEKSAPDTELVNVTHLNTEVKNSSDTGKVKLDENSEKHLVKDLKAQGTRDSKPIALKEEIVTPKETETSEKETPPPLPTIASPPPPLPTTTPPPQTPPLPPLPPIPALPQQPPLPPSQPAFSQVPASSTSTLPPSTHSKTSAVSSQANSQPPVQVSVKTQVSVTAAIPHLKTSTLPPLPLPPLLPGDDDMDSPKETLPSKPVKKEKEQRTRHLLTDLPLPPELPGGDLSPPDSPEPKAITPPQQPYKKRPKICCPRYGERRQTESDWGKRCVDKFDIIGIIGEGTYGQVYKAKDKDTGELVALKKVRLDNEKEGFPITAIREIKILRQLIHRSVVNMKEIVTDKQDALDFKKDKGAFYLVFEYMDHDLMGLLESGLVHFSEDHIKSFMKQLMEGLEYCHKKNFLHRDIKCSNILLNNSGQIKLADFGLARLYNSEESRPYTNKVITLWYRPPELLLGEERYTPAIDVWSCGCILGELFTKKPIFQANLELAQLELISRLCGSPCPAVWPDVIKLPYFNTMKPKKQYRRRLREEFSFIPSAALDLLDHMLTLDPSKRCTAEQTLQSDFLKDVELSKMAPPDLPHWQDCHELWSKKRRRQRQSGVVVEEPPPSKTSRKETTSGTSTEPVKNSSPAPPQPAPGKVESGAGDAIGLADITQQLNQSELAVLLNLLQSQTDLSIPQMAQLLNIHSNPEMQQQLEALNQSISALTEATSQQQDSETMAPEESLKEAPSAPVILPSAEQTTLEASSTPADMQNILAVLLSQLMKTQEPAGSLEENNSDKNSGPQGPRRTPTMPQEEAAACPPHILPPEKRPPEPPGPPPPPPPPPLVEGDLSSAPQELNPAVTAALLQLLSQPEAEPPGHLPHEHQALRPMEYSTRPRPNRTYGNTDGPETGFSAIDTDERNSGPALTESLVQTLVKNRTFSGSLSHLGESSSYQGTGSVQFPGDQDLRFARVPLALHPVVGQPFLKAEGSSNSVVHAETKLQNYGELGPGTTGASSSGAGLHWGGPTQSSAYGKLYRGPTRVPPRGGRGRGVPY
Sequence (O75909 whole entry partner): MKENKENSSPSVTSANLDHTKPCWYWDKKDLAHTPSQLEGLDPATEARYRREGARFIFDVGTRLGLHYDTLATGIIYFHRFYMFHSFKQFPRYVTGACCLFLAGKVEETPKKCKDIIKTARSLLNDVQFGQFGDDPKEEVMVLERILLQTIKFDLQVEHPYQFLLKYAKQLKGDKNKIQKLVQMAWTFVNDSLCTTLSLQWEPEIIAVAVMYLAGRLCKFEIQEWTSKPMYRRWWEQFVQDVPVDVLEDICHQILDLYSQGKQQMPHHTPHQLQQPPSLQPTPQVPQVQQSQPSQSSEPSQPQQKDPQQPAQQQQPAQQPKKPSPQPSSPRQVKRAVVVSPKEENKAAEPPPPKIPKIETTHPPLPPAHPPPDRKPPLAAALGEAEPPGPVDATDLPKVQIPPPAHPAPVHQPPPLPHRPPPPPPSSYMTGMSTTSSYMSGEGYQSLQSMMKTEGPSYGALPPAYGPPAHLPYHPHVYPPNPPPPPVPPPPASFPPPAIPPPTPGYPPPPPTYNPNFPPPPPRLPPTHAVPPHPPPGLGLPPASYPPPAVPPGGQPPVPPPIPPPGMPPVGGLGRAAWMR
test.description: CDK12 nuclear protein level: immunofluorescence/high content analysis (CAL-120)
Format: cell-based
experimental.context: ratio of IC50 CDK12 high ATP kinase assay to DC50 CDK12 degradation (IF, CAL-120)
Description: In the context of the present invention, the term “DC50 CDK12” refers to the DC50 values obtained according to the assay described in this section (7) herein below, i.e. the DC50 values for the degradation of CDK12. Plates are then incubated for 24 h at 37° C. in an humidified incubator and fixed with 4% PFA for 10 min. […] Nuclear and cytoplasmic intensity as well as the nuclear/cytoplasmic intensity ratio is determined by automated image analysis using custom generated scripts (MetaXpress). […]

Study these solved cases before continuing.
molecule | observed.value
Fc1ccc(-c2cnc(CNc3nc(N4CCOCC4)nc4c(Br)cnn34)[nH]2)cc1 | >44
CC1CN(C)CCN1c1nc(NCc2nc3ccccc3[nH]2)n2ncc(Br)c2n1 (single isomer, unassigned; enantiomer 2) [Example 261] | >942
COc1ccccc1-c1nnc(CNc2nc(N3CCOCC3)nc3c(Br)cnn23)[nH]1 | >3913
CN(CCN1CCCC1)c1nc(NCc2nc3ccccc3[nH]2)n2ncc(Br)c2n1 | >58
Brc1cnn2c(NCc3nc4ccccc4[nH]3)nc(N3CC4(COC4)C3)nc12 | >276
CNC1CCN(c2nc(NCc3nc4ccccc4[nH]3)n3ncc(Br)c3n2)CC1 | >2761
COc1ccc2[nH]c(CNc3nc(N4CCOCC4)nc4c(C(F)(F)F)cnn34)nc2c1 | 39
CC(C)c1cnn2c(NCc3nnc(-c4ccccc4)[nH]3)nc(N3CCOCC3)nc12 | 77
C[C@H]1CCCCN1c1nc(NCc2nc3ccccc3[nH]2)n2ncc(Br)c2n1 | 214
Cc1cnn2c(NCc3nc4c(F)c(F)ccc4[nH]3)nc(N(C)CC(C)(C)O)nc12 | 800

Look at each molecule and report its (IC50 CDK12 high ATP) to (Degradation DC50 CDK12) ratio.
1. Fc1ccc2[nH]c(CNc3nc(N4CCOCC4)nc4c(C5CC5(F)F)cnn34)nc2c1 (racemic) [Example 286]
2. FC(F)(F)CN1CCN(c2nc(NCc3nc4ccccc4[nH]3)n3ncc(Br)c3n2)CC1
3. Fc1cc2nc(CNc3nc(N4CC5CCC(C4)N5)nc4c(C5CC5)cnn34)[nH]c2cc1F
4. CN1CCN(c2nc(NCc3nnc(-c4ccccc4)[nH]3)n3ncc(Br)c3n2)CC1=O

Reply:
1. 2107
2. 140
3. 1890
4. 172

Look at each molecule and report its (IC50 CDK12 high ATP) to (Degradation DC50 CDK12) ratio.
1. CN(CC(C)(C)O)c1nc(NCc2nc3cc(Cl)c(Cl)cc3[nH]2)n2ncc(Br)c2n1
2. CC1(O)CCN(c2nc(NCc3nc4ccccc4[nH]3)n3ncc(Br)c3n2)C1 (centres unmarked) [Example 225]
3. CN1CCN(c2nc(NCc3nc4ccccc4[nH]3)n3ncc(CC(F)(F)F)c3n2)CC1

Reply:
1. 58
2. 466
3. >1357
